- assay info: Saturation concentration of gemcitabine in aqueous ethyl alcohol solutions (Example 3)
- Format: physicochemical
- stated conditions: aqueous ethyl alcohol solution, 21 °C, pH 10, aqueous with cosolvent or surfactant or cyclodextrin, thermodynamic from solid, interpolation (polynomial of the 6th degree); about 66 percent by volume of ethyl alcohol, pH 10±0.5; read-out: maximum gemcitabine solubility
endpoint: solubility at 6 h
Lab note: write values as number then unit, every time.

Per the records, this compound ( Nc1ccn([C@@H]2O[C@H](CO)[C@@H](O)C2(F)F)c(=O)n1 ) has solubility at 6 h equal to 50 mg/mL
